# System: RKO
# testProtocol: cells
# Format: cell-based
# conditionLabel: assay number 29; basal; read-out: Basal_Viability ATP RKO summarized IC50
measureName: pIC50
Just the number, please; pIC50 means minus log10 of the concentration in mol/L.

Recorded pIC50, per entry:
O=C(Nc1ccc(Cl)cc1)Nc1ccc(Cl)c(Cl)c1 [NCGC00164034-05] ... 6.54
CCCCCCCCCCCCCCCC[n+]1ccccc1 [NCGC00091023-06] ... 5.90
O=C(O)CN(CCN(CC(=O)O)CC(=O)O)CCN(CC(=O)O)CC(=O)O [NCGC00015360-08] ... 5.53
COP(=S)(OC)Oc1ccc(Sc2ccc(OP(=S)(OC)OC)cc2)cc1 [NCGC00163910-05] ... 4.92

In the following, a different molecule is considered.
Query: Entry under review: Cc1c(C)c2c(c(C)c1O)CC[C@@](C)(CCC[C@H](C)CCC[C@H](C)CCCC(C)C)O2 [NCGC00142625-10] . Reported pIC50?
Response: 5.58

Source of measurements: paper PMC4503722
